System: SK-MEL-28
Assay: NCI tumour cell line growth inhibition, 48 h
Activity calls are given as the source filed them. Rule as the data show it: active = GI50 up to about 1.1 µM and inactive = higher.
OBSERVATION TYPE: GI50

Notebook entry, SK-MEL-28 assay: GI50 of Clc1ccc(Cc2nc3cc(Cl)c(Cl)cc3n2CC2CCCN3CCCCC23)cc1 (stereo not given) = ?
6.93 µM (inactive)

Look up GI50 with SK-MEL-28 for this molecule: CCOP(=O)(OCC)C(C)(CC)N/C(=N\C1=NC(C(F)(F)F)(C(F)(F)F)N=C(C(F)(F)F)O1)NC(NC(C)=O)(C(F)(F)F)C(F)(F)F (stereo not given)
> 100 µM (inactive)

* * *

Tested on: XF498
Test: NCI tumour cell line growth inhibition, 48 h
The source made the active and inactive calls. No stated cut-off is given here; in the data, active = GI50 up to about 1.1 µM and inactive = higher.
Output constraint: value belongs to active, inactive

Write down the call the test reported for this molecule. Item: `Cc1cccc(NC(=O)Cc2nc3ccccc3s2)c1C`
inactive

Assay outcome for `Cc1cc(C)nc(NS(=O)(=O)c2ccc(Nc3c4ccc(Cl)cc4nc4c(C(=O)Nc5ccc(S(=O)(=O)N=C(N)N)cc5)cccc34)cc2)n1` : what was it?
inactive

So what was the verdict on CCOC(=O)CCC1(C(=O)OC)CCCC1=O (centres undefined) in this test?
inactive

Record request — test call for `Cc1cc(C)nc(NS(=O)(=O)c2ccc(NC(=O)c3cccc4c(Nc5ccc(S(=O)(=O)Nc6nc(C)cc(C)n6)cc5)c5ccc(Cl)cc5nc34)cc2)n1`
inactive

Test call for this molecule, please: COc1cc(C2c3cc4c(cc3[C@@H](Nc3ccc(F)cc3)C3COC(=O)[C@H]23)OCO4)cc(OC)c1O (some centres undefined)
inactive

Could you please tell me the result logged for `CCOC(=O)NC(=O)c1cn(CCN2CCN(c3ncnc4[nH]cnc34)CC2)c(=O)[nH]c1=O` in this assay?
inactive

Which outcome was entered for the molecule `O=C1c2c(n(Cc3ccccc3)c(=O)n2Cc2ccccc2)C(=O)N1Cc1ccccc1` in this test?
inactive

What did this assay record as the result for O=S(=O)(c1ccccc1)C1(C2(S(=O)(=O)c3ccccc3)CCN=N2)CCN=N1 (centres undefined) ?
inactive

Entry `CC1=NN(C(=O)c2ccccc2O)C(=O)/C1=C/c1ccc([N+](=O)[O-])cc1` : call = ?
active

The reported measurements were obtained from ChEMBL document CHEMBL1201862.
